biological target: T1, human IL4Rα expressed on 293F-IL4Rα cells (human, UniProt P24394 26-825); assay: flow cytometry on 293F-IL4Rα cells
T1 construct: whole, on cells; also called cell surface human IL4Rα
So I've got a bunch of binders here, and I need their EC50 values.
One number for each entry, in nM.

# count of solved cases: 3
- mouse antibody B1D2F7D3B5 (antibody, V domains shown, Mouse hybridoma mAb) VH: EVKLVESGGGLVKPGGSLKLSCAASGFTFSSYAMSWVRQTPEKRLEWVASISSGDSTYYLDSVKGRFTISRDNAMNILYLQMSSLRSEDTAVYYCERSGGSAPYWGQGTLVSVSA VL: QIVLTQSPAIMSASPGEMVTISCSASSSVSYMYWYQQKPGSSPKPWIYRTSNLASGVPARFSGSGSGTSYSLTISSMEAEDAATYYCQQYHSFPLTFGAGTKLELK: 0.246
- mouse antibody C2B2F7B7 (antibody, V domains shown, Mouse hybridoma mAb) VH: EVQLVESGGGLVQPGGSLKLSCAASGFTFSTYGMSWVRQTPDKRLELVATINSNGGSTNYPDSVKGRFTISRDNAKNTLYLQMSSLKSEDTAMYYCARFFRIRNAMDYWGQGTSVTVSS VL: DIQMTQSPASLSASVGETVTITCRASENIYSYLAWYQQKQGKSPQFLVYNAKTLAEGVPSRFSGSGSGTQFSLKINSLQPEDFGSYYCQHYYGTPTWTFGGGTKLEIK: 0.183
- mouse antibody C2C1A1A1 (antibody, V domains shown, Mouse hybridoma mAb; also called Mouse C2C1A1A1) VH: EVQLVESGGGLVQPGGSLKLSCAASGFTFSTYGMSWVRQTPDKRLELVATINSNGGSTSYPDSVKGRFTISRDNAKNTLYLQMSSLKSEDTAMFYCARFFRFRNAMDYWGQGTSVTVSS VL: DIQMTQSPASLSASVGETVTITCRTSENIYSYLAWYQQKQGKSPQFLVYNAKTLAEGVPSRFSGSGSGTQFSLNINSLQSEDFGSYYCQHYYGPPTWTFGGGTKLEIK: 0.159

Moving on to the next binder.
Prompt: Quick one: EC50 for mouse antibody B9D1D11F8D8 (antibody, V domains shown, Mouse hybridoma mAb) VH: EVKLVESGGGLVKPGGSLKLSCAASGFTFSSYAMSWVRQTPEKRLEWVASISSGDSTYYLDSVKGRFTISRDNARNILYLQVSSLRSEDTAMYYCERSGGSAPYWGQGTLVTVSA VL: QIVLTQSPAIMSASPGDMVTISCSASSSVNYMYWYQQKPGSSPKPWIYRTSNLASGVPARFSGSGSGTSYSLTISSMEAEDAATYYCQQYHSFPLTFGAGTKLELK ?
Response: 0.221
